- assay remarks: NCI Yeast Anticancer Drug Screen. Data for the mlh1 rad18 strain (AID 175)
- condition: S. cerevisiae mlh1 rad18 strain growth inhibition; at 5.0 µM (retest, dose inferred, filed as 0.5); active compounds read high
Compounds without any hit were thinned out: in the full panel of roughly 79,000, 15% have a hit. Where a SMILES comes first, the peptide text is derived from it. The star is where a group is joined. OSu = O=C1CCC(=O)N1O*; OBn = c1ccc(CO*)cc1; Bn = c1ccc(C*)cc1

- compound: "CC1C[C@]2(C)C(=S)Nc3ccccc3[C@@H]2Nc2ccccc21 (some centres not stated)"
  growth inhibition [%]: 6
- compound: "CCC(Cl)COP(=O)(OCC(Cl)CC)OC(c1ccc(Cl)c(Cl)c1)P(=O)(OCC(Cl)CC)OCC(Cl)CC (configuration not stated)"
  growth inhibition [%]: 7
- compound: "CN(C)C1C=CCC(c2ccccc2)C1[N+](=O)[O-] (configuration not stated)"
  growth inhibition [%]: 5
- compound: "COc1cc(-c2oc(C=Nc3ccccc3)c([N+](=O)[O-])c2-c2ccc(O)c(OC)c2)ccc1O"
  growth inhibition [%]: 25
- compound: "CCN(CC)CCCCNc1ccc(Cl)cc1"
  growth inhibition [%]: -7
- compound: "CC1C(CCC(=O)O)OC2CC3C4CCC5CC(O)CCC5(C)C4CCC3(C)C21 (configuration not stated)"
  growth inhibition [%]: 16
- compound: "CC[n+]1cnc(N)c2c(-c3ccc(Cl)cc3)cn(-c3ccc(C)cc3)c21"
  growth inhibition [%]: -3
- compound: "O=C(CSc1nnc(Cc2ccccc2)o1)Nc1cccc(Cl)c1"
  growth inhibition [%]: 9
- compound: "CCCCCCCCCCCCCCCCCC(=O)OCCN1C(=O)c2ccccc2C1=O"
  growth inhibition [%]: -2
- compound: "CCCCCC(Oc1ccc(Cl)cc1)C(=O)O (configuration not stated)"
  growth inhibition [%]: -15
- compound: "CC(=N/NC(=S)NCC(C)C)/C(C)=N\\Nc1ccc(Cl)cc1"
  growth inhibition [%]: 0
- compound: "COc1cccc(C2c3cc4c(cc3OC(NNc3ccccc3)C2C)OCO4)c1O (configuration not stated)"
  growth inhibition [%]: 27
- compound: "CC(C)CC(NC(=O)C(N)CCC(=O)OCc1ccccc1)C(=O)NC(COCc1ccccc1)C(=O)NC(Cc1ccccc1)C(=O)ON1C(=O)CCC1=O (configuration not stated) (H-E(OBn)LS(Bn)F-OSu; configuration not given here)"
  growth inhibition [%]: 60
- compound: "O=C1c2ccccc2CN1Cc1ccc(Cl)c(Cl)c1"
  growth inhibition [%]: -2
- compound: "O=C1CCC(O)N1CN1C(=O)CCC1O (configuration not stated)"
  growth inhibition [%]: -6
- compound: "CCCCCCCCCCCCCC(=O)NO"
  growth inhibition [%]: 99
- compound: "FC(F)(F)c1ccccc1NC(=S)SCc1ccco1"
  growth inhibition [%]: -2
- compound: "CCOC(=O)OC(=S)N(C1CCCCC1)C1CCCCC1"
  growth inhibition [%]: 1
- compound: "COc1ccc(/C=C2\\CCCc3ccccc3C2=O)cc1"
  growth inhibition [%]: 5
- compound: "FC(F)(F)c1[nH]nc(-c2cccs2)c1N=NN1CCOCC1"
  growth inhibition [%]: 100
- compound: "CCOC(=O)C(=N\\Nc1cccc(C)c1C)/C(C)=N\\NC(N)=S"
  growth inhibition [%]: 30
- compound: "Clc1ccccc1/C=C/c1ccnc2ccccc12"
  growth inhibition [%]: -5
